# Target system: Glucagon-like peptide 1 receptor (Homo sapiens)
# Sequence (P43220 whole entry): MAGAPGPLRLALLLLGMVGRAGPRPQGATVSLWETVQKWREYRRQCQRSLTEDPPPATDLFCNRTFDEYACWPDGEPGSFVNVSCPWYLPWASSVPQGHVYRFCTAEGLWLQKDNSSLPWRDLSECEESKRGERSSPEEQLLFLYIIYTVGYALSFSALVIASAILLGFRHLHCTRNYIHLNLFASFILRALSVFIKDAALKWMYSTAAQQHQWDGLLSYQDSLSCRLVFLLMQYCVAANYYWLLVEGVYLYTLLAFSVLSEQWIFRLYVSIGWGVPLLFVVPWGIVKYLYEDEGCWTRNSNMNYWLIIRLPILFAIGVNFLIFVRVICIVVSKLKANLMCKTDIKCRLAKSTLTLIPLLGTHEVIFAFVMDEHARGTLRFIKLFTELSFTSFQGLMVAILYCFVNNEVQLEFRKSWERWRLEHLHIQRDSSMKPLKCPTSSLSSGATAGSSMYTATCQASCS
# Protocol text: Binding affinity to human cloned GLP1R expressed in BHK cells
Measure: IC50 (µM)

Some solved cases for reference:
Compound: CC(C)(C)C1CCC(N(Cc2ccc(C(=O)NCCC(=O)O)cc2)C(=O)Nc2ccc(OC(F)(F)F)cc2)CC1 (stereo not drawn)
Target system: Glucagon-like peptide 1 receptor (Homo sapiens)
IC50 / µM: 2.54

Compound: CO[C@H](CNC(=O)c1ccc(CN(C(=O)Nc2cc(Cl)cc(Cl)c2)c2ccc(C3=CCCCC3)cc2)cc1)C(=O)O
Target system: Glucagon-like peptide 1 receptor (Homo sapiens)
IC50 / µM: 21.8

Compound: O=C(NC[C@H](O)C(=O)O)c1ccc(CN(C(=O)Nc2cc(Cl)cc(Cl)c2)c2ccc(C3=CCCCC3)cc2)cc1
Target system: Glucagon-like peptide 1 receptor (Homo sapiens)
IC50 / µM: 9.32

Compound: CC(C)(C)c1ccc(N(Cc2ccc(C(=O)NCCC(=O)O)cc2)C(=O)Nc2ccc(OC(F)(F)F)cc2)cc1
Target system: Glucagon-like peptide 1 receptor (Homo sapiens)
IC50 / µM: 10.8

Compound: CC(C)(C)[C@H]1CC[C@H](N(Cc2ccc(C(=O)NC[C@@H](O)C(=O)O)cc2)C(=O)Nc2cc(C(F)(F)F)cc(C(F)(F)F)c2)CC1
Target system: Glucagon-like peptide 1 receptor (Homo sapiens)
IC50 / µM: 7.73

1. CC(C)(C)[C@H]1CC[C@H](N(Cc2ccc(C(=O)NC[C@H](O)C(=O)O)cc2)C(=O)Nc2cc(C(F)(F)F)cc(C(F)(F)F)c2)CC1
2. O=C(NC[C@@H](O)C(=O)O)c1ccc(CN(C(=O)Nc2cc(Cl)cc(Cl)c2)c2ccc(C3=CCCCC3)cc2)cc1
// query Look at 1 and 2 . Which one has the lower recorded IC50 number? Answer format: the label of the selected item.
// result 1

###

# Target system: Glucagon receptor (Homo sapiens, UniProt P47871)
# Sequence (P47871 whole entry): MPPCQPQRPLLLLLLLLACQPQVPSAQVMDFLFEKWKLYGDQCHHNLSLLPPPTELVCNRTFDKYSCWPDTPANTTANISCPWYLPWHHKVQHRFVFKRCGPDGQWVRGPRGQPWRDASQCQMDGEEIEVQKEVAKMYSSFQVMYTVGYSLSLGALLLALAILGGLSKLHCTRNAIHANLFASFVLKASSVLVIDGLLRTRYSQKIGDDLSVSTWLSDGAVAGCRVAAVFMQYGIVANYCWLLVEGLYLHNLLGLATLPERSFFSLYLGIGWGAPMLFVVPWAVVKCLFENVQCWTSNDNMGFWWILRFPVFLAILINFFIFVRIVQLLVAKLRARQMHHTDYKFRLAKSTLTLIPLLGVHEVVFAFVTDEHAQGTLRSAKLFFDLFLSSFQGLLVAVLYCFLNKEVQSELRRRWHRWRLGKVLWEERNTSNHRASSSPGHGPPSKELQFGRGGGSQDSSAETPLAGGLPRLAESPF
# Protocol text: Binding affinity to human cloned GluR expressed in BHK cells
pIC50: −log10 of the molar value.
Measure: pIC50

Some solved cases for reference:
Compound smiles: O=C(NC[C@@H](O)C(=O)O)c1ccc(CN(C(=O)Nc2ccccc2)c2ccc(C3=CCCCC3)cc2)cc1
pIC50: 6.78
//
Compound smiles: O=C(NC[C@H](O)C(=O)O)c1ccc(CN(C(=O)Nc2cc(Cl)cc(Cl)c2)c2ccc(C3=CCCCC3)cc2)cc1
pIC50: 7.29
//
Compound smiles: O=C(O)CCNC(=O)c1ccc(CN(C(=O)Nc2cc(Cl)cc(Cl)c2)c2ccc(C3=CCCCC3)cc2)cc1
pIC50: 7.92

I. O=C(NC[C@@H](O)C(=O)O)c1ccc(CN(C(=O)Nc2cc(Cl)cc(Cl)c2)c2ccc(C3CCCCC3)cc2)cc1
II. CC(C)(C)c1ccc(N(Cc2ccc(C(=O)NCCC(=O)O)cc2)C(=O)Nc2ccc(OC(F)(F)F)cc2)cc1
// query Recorded pIC50 values differ for I and II ; which one is higher? Answer format: the label of the selected item.
// result I
(I: 8.40, II: 7.44)

###

# Target system: Gastric inhibitory polypeptide receptor (Homo sapiens)
# Sequence (P48546 whole entry): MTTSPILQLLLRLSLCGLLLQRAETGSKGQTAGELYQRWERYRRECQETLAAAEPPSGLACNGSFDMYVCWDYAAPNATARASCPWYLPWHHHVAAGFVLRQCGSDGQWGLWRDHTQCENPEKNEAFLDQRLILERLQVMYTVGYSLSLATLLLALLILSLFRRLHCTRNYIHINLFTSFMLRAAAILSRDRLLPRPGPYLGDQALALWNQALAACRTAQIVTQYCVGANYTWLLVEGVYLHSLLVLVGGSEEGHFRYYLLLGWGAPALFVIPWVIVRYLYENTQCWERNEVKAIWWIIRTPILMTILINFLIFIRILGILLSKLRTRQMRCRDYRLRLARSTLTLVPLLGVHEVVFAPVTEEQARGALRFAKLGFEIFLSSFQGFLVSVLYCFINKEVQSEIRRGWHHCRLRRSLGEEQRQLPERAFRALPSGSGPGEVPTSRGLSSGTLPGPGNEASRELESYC
# Protocol text: Binding affinity to human cloned GIPR expressed in BHK cells
Measure: IC50 (nM)

Compound smiles: N#Cc1ccc(NC(=O)N(Cc2ccc(C(=O)NC[C@@H](O)C(=O)O)cc2)c2ccc(C3CCCCC3)cc2)cc1C(F)(F)F
Target system: Gastric inhibitory polypeptide receptor (Homo sapiens)
IC50 (nM): 198

A. O=C(NC[C@@H](O)C(=O)O)c1ccc(CN(C(=O)Nc2ccc(SC(F)(F)F)cc2)c2ccc(C3CCCCC3)cc2)cc1
B. O=C(O)CCNC(=O)c1ccc(CN(C(=O)Nc2cc(Cl)cc(Cl)c2)c2ccc(C3=CCCCC3)cc2)cc1
// query Recorded IC50 values differ for A and B ; which one is higher? Answer format: the label of the selected item.
// result B
(B: 64 nM, A: 12 nM)

Source of measurements: ChEMBL document CHEMBL1140036
